Test: chemical genetic growth profiling, strain panel (AID 1159580);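 further: tested at 20 µM; growth read once vehicle control cultures reached saturation at 30 °C; 1 = growth at the plate median or of vehicle wells; lower values mean less growth of the strain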
Conditions: S. cerevisiae deletion strains, growth OD, locus YGR229C, strain SMI1
Screen size: about 5,500 compounds; about 2,000 (36%) were called active. Roughly 18% stayed inconclusive and do not appear here. No stated cut-off is given here; in the data, active means normalized growth mostly below about 0.91 (no sharp cut-off); inconclusive means no clear call, values can overlap the other calls; inactive means mostly above about 0.92. The list shows a part of the results. Where a SMILES comes first, the peptide text is derived from it. Bridges are numbered along the chain shown (N, C = ends). [ ]: non-standard residue; d: D form. The star is where a group is joined. ξ: configuration not given here. ξDab(CH2SO3H) = NC(CCNCS(=O)(=O)O)C(=O)O; Heptanoyl(6-Me) = CC(C)CCCCC(=O)*; Dab = NCC[CH](N)C(=O)O
// classify into true (1) (active), false (0) (inactive)

Some solved cases for reference:
COMPOUND	CAT
O=C(O)/C=C1\CCCc2ccccc2C1O (configuration not stated)	false (0)
CCC(C)C1NC(=O)C(CCNCS(=O)(=O)O)NC(=O)C(NC(=O)C(CCNCS(=O)(=O)O)NC(=O)C(NC(=O)C(CCNCS(=O)(=O)O)NC(=O)CCCCC(C)C)C(C)O)CCNC(=O)C(C(C)O)NC(=O)C(CCNCS(=O)(=O)O)NC(=O)C(CCNCS(=O)(=O)O)NC(=O)C(C(C)CC)NC1=O (configuration not stated) ({Heptanoyl(6-Me)}-[ξDab(CH2SO3H)]T[ξDab(CH2SO3H)][Dab][ξDab(CH2SO3H)]II[ξDab(CH2SO3H)][ξDab(CH2SO3H)]T; lactam 4-C; configuration not given here)	false (0)
COC(=O)Nc1nc2ccc(C(=O)c3cccs3)cc2[nH]1	false (0)
C/C=C1\[C@H]2C=C(C)C[C@]1(N)c1ccc(=O)[nH]c1C2	false (0)
COC(=O)Nc1nc2ccc(C(=O)c3ccccc3)cc2[nH]1	true (1)
CC1(C)CC[C@]2(C(=O)O)CC[C@]3(C)C(=CCC4[C@@]5(C)CC[C@@H](O)C(C)(C)C5CC[C@]43C)C2C1 (some centres not stated)	false (0)

// next entry
Could you kindly confirm the outcome this assay logged for CC1(C)CC[C@]2(C)CC[C@]3(C)C(=CCC4[C@@]5(C)CC[C@H](O)C(C)(C)C5CC[C@]43C)C2C1 (some centres not stated) ?
false (0)

----------
# key: entry, value: normalized growth
Experiment: chemical genetic growth profiling, strain panel (AID 1159580);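 further: tested at 20 µM; growth read once vehicle control cultures reached saturation at 30 °C; 1 = growth at the plate median or of vehicle wells; lower values mean less growth of the strain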
Details: S. cerevisiae deletion strains, growth OD, locus YNR030W, strain Alg12, active compounds read low
About 2,000 (36%) of roughly 5,500 compounds were called active. About 18% were inconclusive and are not listed. The list shows a part of the results.
Output: the number by itself.

CCOC(=O)NC(=O)c1cn(Cc2cccs2)c(=O)[nH]c1=O 1.01
O=C(O)CSCC(=O)NC1CCN(Cc2ccccc2)CC1 1.02
N#CC(C#N)=CNc1cccc(N)n1 1

Requested field: normalized growth. Item: `COc1ccc(Oc2cc(C)nc3ccccc23)cc1`
0.967

Requested field: normalized growth. Item: `O=S(=O)(CCN1CCOCC1)c1ccc(Cl)cc1`
0.987

Requested field: normalized growth. Item: `Cc1cc(C2=CSC3=NCCN23)ccc1Cl`
0.994

Requested field: normalized growth. Item: `NC(=S)COc1ccccc1Cl`
0.95

Requested field: normalized growth. Item: `COc1cc(OC)nc(N)n1`
0.999

Requested field: normalized growth. Item: `Cc1cc(OCOc2ccc(Cl)c(C)c2)ccc1Cl`
0.97

Requested field: normalized growth. Item: `O=C(NC1CCN(Cc2ccc(Cl)c(Cl)c2)CC1)c1ccccc1`
0.96

Reference source: PubChem BioAssay AID1159580
